System: K4 kissing-loop RNA reporter;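 further: bound reporter read as fluorescence of individual clusters on recovered sequencing chips by microscopy, with normalized cluster intensities fitted with a binding model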
TEST_SUMMARY: apparent KD of K4 kissing-loop reporter; higher = weaker reporter binding
ASSAY_CONTEXT: Eterna round: R107; input ligand: arginine 13.2 mM
TEST_READOUT: apparent KD of K4 kissing-loop reporter

Entry "UCCUGCAAUCUGCCACGAAAGUGGAUGGAUACCAGAGUCGAAAGACUCCCUUGGCAGCCAGUGAUGUUGGAAGCAGGUAAAUAAA" under K4 kissing-loop RNA reporter had apparent KD of K4 kissing-loop reporter of 396 nM

// returns apparent KD of K4 kissing-loop reporter for UGACUACAAAAGGAAUAAUCCUAGUGAUGUUAGGAUAUGCUGAUAAGCAGAAGGAACUGAGAUCGAAAGAUCUCAAAUGUAGUCU [FmnAX 25 Mat Inspired #SwitchBubble #StaticStem #K4Early] with K4 kissing-loop RNA reporter; value = 89.1 nM

Response field apparent KD of K4 kissing-loop reporter (K4 kissing-loop RNA reporter) for item CGCCGAAAGGCGAGCGCUCCCACUCCGGAAGGAGCGCCCGAAAGGGCAGGUAGGUCGCCGGAGUGAUGUUCCGGUGGAGGGCUCG [#2 Exclusion - Arginine A Attempt #30 (Inspired by Omei)] : 167 nM

Param item: CCAUUCAUUUACGAUACCAGUCUAAUAUAUUGAAUCAAAACCCUCGCCGAGUGAUGUUCGGACCCUUGGCAGCGUCUGCGAGAGG [ddrdkmullin] ; param system: K4 kissing-loop RNA reporter; output apparent KD of K4 kissing-loop reporter: 548 nM

Summary: UGAUUGCCAGUGAUGUUGGCAUAAACUGAAGGAGCGCGUGAAAACGCAGGUAGGUCGCAGUACCAUGCCAAUUGAUCGAAAGAUC [KL-XArg-A2] , K4 kissing-loop RNA reporter, apparent KD of K4 kissing-loop reporter = 150 nM

# context switch: different sequence, same apparent KD of K4 kissing-loop reporter
Measured on K4 kissing-loop RNA reporter, CUGCAACAUAACUUCUUCGUCCUAGAAGACUAGGAUAUCAGGAAACUGAGAAGGAGUCUCUGCAGUGAUGUUGCAGUUAGGACGA [KL-SSFMN-A7] has a documented apparent KD of K4 kissing-loop reporter of 135 nM

---

Tested on: MS2 coat protein
TEST_SUMMARY: apparent KD of MS2 coat protein; designed switch direction (-1 OFF switch, 1 ON switch): 1; higher = weaker reporter binding
ASSAY_CONTEXT: input ligand: FMN 200 uM
TEST_READOUT: apparent KD of MS2 coat protein (nM)
Form entry: value (nM) — number only.

Sure, the documented apparent KD of MS2 coat protein for GGUGCAAUUAACGCCUACAUGAGGAUCACCCAUGUAUGUAGGCAGGAUAUCGUUUGCAAAGCAAACGAGAAGGGCUAUAGUACC [Mat - Same State NG 3 - JL Mod - D43] (Eterna round: R96, puzzle: Same State NG 3) is 66.9

// sample AGGGAGGAUGCAGGAUAUAUAAGACAUGAGGAUCACCCAUGUACCUCGUGGAGAAGAAAGGAGAGAUAGAAGGGUAGAGAGGAA [Default title] (Eterna round: R96, puzzle: Same State NG 2) , its apparent KD of MS2 coat protein was 314

The sequence GUGGUCAGACAUGAGGAUCACCCAUGUGGAAUAAAUAAGGAAGAGGAUAUCGAAUAUAGGAUAUACGAGAAGGUUUGGUUGGUG (Eterna round: R96, puzzle: Same State NG 3) showed apparent KD of MS2 coat protein equal to 117

Value of apparent KD of MS2 coat protein reported for the sequence GGAGCCAAGGCAGGAUAUUCAUUAUAAAUAACAUGAGGAUCACCCAUGUUGGCCAGAAGGCCAUGGGAGAAGGGCCAUGGCUCG [Xeonanis - 13 mod24] (Eterna round: R96, puzzle: Same State NG 2) is 17.7

// field: apparent KD of MS2 coat protein; key: AGUCCAGCCUGAGCUGGACAAAUGCUUGUACAUGAGGAUCACCCAUGUAUGUACAAGCUUUUUGCUCGUCUUAAUAA [JL zipper 68] (Eterna round: R96, puzzle: Sensor for hsa-mir-208a) ; value = 263

Record ACUUAGUACAAUUUAGAUCUACAUGAGGAUCACCCAUGUACUGAGGAUAUCAGCUCGUUUAGAGCUGAGAAGGCAGUAGUACUA [SSNG3/9-A3] (Eterna round: R96, puzzle: Same State NG 3) , field apparent KD of MS2 coat protein: 46.7

Memo: GUUACAUGAGGAUCACCCAUGUAUGUGUGGGAGUAAGUGUCUUAGGAUAUCUAGUAUUUAAUUAAAGAGAAGGAAGAUUGUUGU [JMF's solution 66] (Eterna round: R96, puzzle: Same State NG 3) , reported apparent KD of MS2 coat protein: 126

apparent KD of MS2 coat protein measured on AUUACUAACAUAGGAUAUCAUGCGAAAAUUGCGUGAGAAGGGUGGACGCUGUCAUUCACGGAGGACAUGAGGAUCACCCAUGUC [SameState NG1 #72] (Eterna round: R96, puzzle: Same State NG 1) = 264

Per the records, this sequence ( UUGAAGAAUUAAGGAUAUUGAUUACAUAUGUUUAACAUGAGGAUCACCCAUGUGGGUUGCGGUAUCGAGAAGGUAAAUUAAUAG [Mat - same State NG 2 - JL mod - D81] (Eterna round: R96, puzzle: Same State NG 2) ) has apparent KD of MS2 coat protein equal to 168

Briefly, apparent KD of MS2 coat protein measured for AAUAACAAUUUAGGAUAUCGACAGCGAAACUCACGAGAAGGAGAUAAGAGGCUGGCCUCGCGCACAUGAGGAUCACCCAUGUCG [Eternabot solution 25] (Eterna round: R96, puzzle: Same State NG 1) : 38.1

Measured apparent KD of MS2 coat protein, CUGCUCGUGUGAGGAUAUGCCGCCGUUUCGGCUGCAGAAGGUGCUACGUUACAUGAGGAUCACCCAUGUCUCUGUUGUUUCGUA [salish99_SSNG1_r04_948] (Eterna round: R96, puzzle: Same State NG 1) : 40.1

// apparent KD of MS2 coat protein lookup, sequence = AAACACAGCAUAACGCUGUGACAUGAGGAUCACCCAUGUACACAGGAUAUCAUGGCAUAACGCCAUGAGAAGGGUGAUCAAGAC [Arxeerte] (Eterna round: R96, puzzle: Same State NG 3) , result: 20.5

So for UUAAUAAAGUAAGGAUAUACAUGAGGAUCACUCGUAGAAGGUACUAAACAUGAGGAUCACCCAUGUACCGGUCCGUAGACUGGA [Mat - Same State NG 1 - JL mod - D1] (Eterna round: R96, puzzle: Same State NG 1) , the logged apparent KD of MS2 coat protein turned out to be 844

Item: UUGCUCGUGUGAGGAUAUGCCGCCGUUUCGGCUGCAGAAGGUACUGUAAUACAUGAGGAUCACCCAUGUCUCUGUUGUUUCGUG [salish99_SSNG1_r04_934] (Eterna round: R96, puzzle: Same State NG 1) | apparent KD of MS2 coat protein: 17.1

The recorded apparent KD of MS2 coat protein for CAUUGGACAUCCAGUGAGACAUGAGGAUCACCCAUGUAGGCGCAGGAUAUGCGGGUUCGGUGCUCGCAGAAGGGUGAAGAAAAC [Veenin] (Eterna round: R96, puzzle: Same State NG 3) is 129

Measured apparent KD of MS2 coat protein of GGUAGGUUACUACCAAACAUGAGGAUCACCCAUGUAAGUGGGAAGGAUAUGGUACCUUUUAGGUACCAGAAGGUCCAUAUAAUU [JL Fiskers NG3ss - 2 mod 6] (Eterna round: R96, puzzle: Same State NG 3) : 177

Per the records, this sequence ( ACAUGAGAUUGAGGAUAUAUUGUACCUACAUGUGACAUGAGGAUCACCCAUGUGGUAAGUAUGACAUAGAAGGCAAAGAUAUGU [Equivalance 81 - Jieux - Same State NG 2] (Eterna round: R96, puzzle: Same State NG 2) ) has apparent KD of MS2 coat protein equal to 87.1

Form field apparent KD of MS2 coat protein, entry GUGCUCGUGUAAGGAUAUGCAGCCGUUUCGGCUGCAGAAGGUACUAUAAUACAUGAGGAUCACCCAUGUCUCUUUUGUUUGGUG [salish99_SSNG1_r04_907] (Eterna round: R96, puzzle: Same State NG 1) : 234

---

// apparent KD of MS2 coat protein lookup, one value per entry
System: MS2 coat protein
TEST_SUMMARY: apparent KD of MS2 coat protein; higher = weaker reporter binding
ASSAY_CONTEXT: Eterna round: R107; input ligand: tryptophan 2.4 mM
Provide the measurement as a number trailed by its unit.

# example entries with known answers
Field apparent KD of MS2 coat protein (system: MS2 coat protein) for entry AGCGACAUGCGUGAUACCAGCUACAUGAGGAUCACCCAUGUACGUCAGUAAUGACUGUGUAGCCCUUGGCAGCAUAAUGCAUGUC [Exclusion - Theophylline B (Freestyle 18)] = 33.3 nM

I looked up AAUGUAUGGCACAUGAGGAUCACCCAUGUGCGAGGACCGGUACGGCCGCCACUCGGUCCUGGGUUCUUAUUACUAUACAUUAAUG [XTryp A #15] and its apparent KD of MS2 coat protein for MS2 coat protein was 27.1 nM

Here UUGGGUUUGUGAAGGAGCGGGAAAGAUAUAUAUUUAAUCCUAACAUGAGGAUCACCCAUGUCCCAGGUAGGUCGCGCGGGUUUGG [12.O] was tested on MS2 coat protein, and its apparent KD of MS2 coat protein came to 46.9 nM

MS2 coat protein assay, sequence "GGAUAGGACACGGCCGCCACUAGCUAGGAUACUAGCAACAUUUCCUCGCUUGAGGAUCACCCAAGUAGGACCGGGUGUCCUAUCG" , recorded apparent KD of MS2 coat protein = 482 nM

For the sequence GUGGAGACAUGAGAUACCAGUCUCUUUAACAUGAGGAUCACCCAUGUAAUGCUCCUCGGAGACCCUUGGCAGCUCAGUAUGAUGA [#09 Exclusion-TheophyllineB] , the measured apparent KD of MS2 coat protein on MS2 coat protein was 34.4 nM

More entries:
Short answer on MS2 coat protein for UUCGUUUGCGGAAGGAGCGACGGACAUCGGUGAACAACGCACAUGAGGAUCACCCAUGUACGUCAGGUAGGUCGCCGCUAAGAGU [XArg-B3] , apparent KD of MS2 coat protein: 73.6 nM

The measured apparent KD of MS2 coat protein that AGACAUGAGGAUCACCCAUGUAGUACGGAUACCAGAUCCAGAUGCGUCCCUUGGCAGCUGUAGUACAGCGUUACAUCGCUCGUAG [Exclusion - Theophylline A (Freestyle 24)] showed for MS2 coat protein is 22.4 nM

Param item: GAUGAACUAUAUGAUACCAGACAACAUGAGGAUCACCCAUGUGAAUGUCGUCCUCUGCCUGUCCCUUGGCAGCGUAUAGUUUAUC [XTheo B #15] ; param system: MS2 coat protein; output apparent KD of MS2 coat protein: 20.3 nM

Entry UGCGUACAUGAGGAUCACCCAUGUAUAGAUACCAGUCACCCAUGUGGCCCUUGGCAGCUAACAUGAGGAUCACUACAUGAGGAUC [Exclusion Theophylline A 3] : apparent KD of MS2 coat protein on MS2 coat protein = 32.7 nM

The value of apparent KD of MS2 coat protein recorded for GGAUAGGACAGAAGGAGCGACAUGGCAGAAACUGCAAUCCUCCUACACGAGGAUCACCCGUGUCAGGUAGGUCGCUGUCCUAUCG [ArgXB 12 #Zipper #MS2Left #StaticStem #Blueprint] when tested on MS2 coat protein reads 27.4 nM

CGUAUUGUAACUGAUACCAGUGUACUGACAUGAGGAUCACCCAUGUUGGGUUUUGUUGUACACCCUUGGCAGCAGAAUCAAUACG [AstrosExyTheB#5] tested on MS2 coat protein gave apparent KD of MS2 coat protein: 65.8 nM

Reported MS2 coat protein apparent KD of MS2 coat protein for item CUAAGAGCGGCGGCCGCCACUGGUAACCAAGAGGCGGAGCCUCUGACAUGAGGAUCACCCAUGUUCAGGACCGGGUCGUCUUAGA [#07 Same State - Tryptophan B] was 10.9 nM

The origin of these recorded values is the supplement of paper PMC9170038.
